Origin of values: PubChem BioAssay (NCI)

test.details: NCI Yeast Anticancer Drug Screen. Data for the bub3 strain (AID 167)
condition: S. cerevisiae bub3 mutant strain, at 50.0 µM, hits give high values
Compounds without any hit were thinned out: in the full panel of roughly 79,000, 15% have a hit.
Quick reference: growth inhibition of the listed items.

{"columns": ["compound", "unit.name", "growth inhibition"],
 "data": [
  ["CC1=CC2=C(C(N)=O)C(=O)OC2(C)C(c2ccccc2)C1 (stereo not drawn)", "%", 1.85],
  ["CCn1c(C)nc([N+](=O)[O-])c1Sc1ncn[nH]1", "%", -7.05],
  ["Cc1cccc2c1ccc1ccccc12", "%", -9.65]
]}
